Ref: patent US20120141376A1

Tested on: HLA class I (e.g. HLA-A2) expressing adherent 293T cells
assay.notes: CTL assay on reverse transfected microarray (caspase activation, fluorescent Z-VAD)
Format: cell-based, human
details: HLA-matched CD8+ T cells from prostate cancer patients incubated 4 hours on array; red fluorescent signal = positive response

- molecule: "No. 18: DATAS fragment; golgi SNAP receptor complex member 2; exon extension (nucleic acid, listed as Homo sapiens) DNA: GGCCTTAGGGGCACGAGGATGTGAATCGACCTACTACTTAATATAATGGCTGTGAGAAAAGGCCTCTTTCCTTTCCTTTCCACTTTTGCTCCACCCTATCAGGAGCCAGAAAGGCCTGATGGTGACAAGGTGTGAACCGTGTGGACAGTCCTGCACACAGGGCTCACTGTGGACACCTTCCCAGGGCACGCATCAGCTGTGTGAACAAAGCCACCAAAGCCATTCTTTCCCTCCCCCGC"
  Patient ID with positive hit: "FRJY5"
- molecule: "No. 14: DATAS fragment; zinc finger protein 142 (clone pHZ-49); exon extension (nucleic acid, listed as Homo sapiens) DNA: CGGACCAGGACAAAATCATGACGATGCTCCATCCCAAGCCTTCCAGGTTACAAACCGCCTTTCCAGTTCGCTGGCTCTTATGATCCAGCTCCTGCCCGACGATGTGGACACTGTCATCACCTCCATTTTACAGATAGGAAAGCTGAGGCCCAGAGAAGCGAAGCGACTGTGTCTGTCCAAGACCACGCGCCCTCCTCCCTGTC"
  Patient ID with positive hit: "MSMPB"
